TEST: Pharmacokinetics of PDS after single and multiple oral administration in AA amyloidosis patients
Format: in vivo
MEASUREMENT SETUP: human, plasma, Dose 1200 (mg BID), Month 24 repeated oral doses, n = 1
READOUT TYPE: Tmax (min)

>>> df
                                        smi  readout_type  display_unit  reported_value
0  O=S(=O)([O-])CCCS(=O)(=O)[O-].[Na+].[Na+]          Tmax           min            40.8

###

TEST: Pharmacokinetics of single rising oral doses of PDS and food effect in healthy male subjects
Assay type: in vivo, human
MEASUREMENT SETUP: male, human, plasma, po, 400 mg, single oral 400 mg, healthy male subjects, n = 5; mean
READOUT TYPE: AUC(0-inf) (ng·h/mL)

>>> df
                                        smi  reported_value
0  O=S(=O)([O-])CCCS(=O)(=O)[O-].[Na+].[Na+]            2900

###

TEST: Pharmacokinetics of single and repeated oral doses of PDS in healthy male subjects
Type: in vivo, human
MEASUREMENT SETUP: male, human, plasma, po, 400 mg, 400 mg q.i.d., Day 7 (repeated oral administration), n = 6; mean
READOUT TYPE: AUC(0-t) (ng·h/mL)

>>> df
                                   compound  readout_type  reported_value
0  O=S(=O)([O-])CCCS(=O)(=O)[O-].[Na+].[Na+] [PDS]      AUC(0-t)           10500

###

TEST: Pharmacokinetics of PDS after single and multiple oral administration in AA amyloidosis patients
Format: in vivo
MEASUREMENT SETUP: human, plasma, po, 400 mg BID, Month 24 repeated oral doses, n = 3, mean, read-out: AUC(0-tlast)
READOUT TYPE: AUC(0-t) (ng·h/mL)

                                        smi  reported_value
0  O=S(=O)([O-])CCCS(=O)(=O)[O-].[Na+].[Na+]           25700

###

TEST: Pharmacokinetic profile of a single oral dose of 800 mg PDS in subjects with varying degrees of renal impairment vs healthy volunteers
Assay type: in vivo
MEASUREMENT SETUP: human, plasma, single oral 800 mg, Mild renal impairment, GFR 50-80 mL/min, n = 6, mean
READOUT TYPE: Cmax

>>> df
                                        smi  reported_value
0  O=S(=O)([O-])CCCS(=O)(=O)[O-].[Na+].[Na+]      3060 ng/mL

###

TEST: Pharmacokinetics of single and repeated oral doses of PDS in healthy male subjects
Assay type: in vivo, human
MEASUREMENT SETUP: male, human, plasma, po, 1600 mg, 1600 mg q.i.d, Day 7 (repeated oral administration), n = 6; median
READOUT TYPE: Tmax (min)

>>> print(df.to_string())
                                   molecule  readout_type  reported_value
0  O=S(=O)([O-])CCCS(=O)(=O)[O-].[Na+].[Na+] [PDS]          Tmax              15
